Biological target: human recombinant Yes [a.a. 2–543 (end)] (Homo sapiens)
Construct: human recombinant Yes [a.a; 2–543 (end)]; purchased BPS Bioscience 40488
Sequence (P07947 2-543): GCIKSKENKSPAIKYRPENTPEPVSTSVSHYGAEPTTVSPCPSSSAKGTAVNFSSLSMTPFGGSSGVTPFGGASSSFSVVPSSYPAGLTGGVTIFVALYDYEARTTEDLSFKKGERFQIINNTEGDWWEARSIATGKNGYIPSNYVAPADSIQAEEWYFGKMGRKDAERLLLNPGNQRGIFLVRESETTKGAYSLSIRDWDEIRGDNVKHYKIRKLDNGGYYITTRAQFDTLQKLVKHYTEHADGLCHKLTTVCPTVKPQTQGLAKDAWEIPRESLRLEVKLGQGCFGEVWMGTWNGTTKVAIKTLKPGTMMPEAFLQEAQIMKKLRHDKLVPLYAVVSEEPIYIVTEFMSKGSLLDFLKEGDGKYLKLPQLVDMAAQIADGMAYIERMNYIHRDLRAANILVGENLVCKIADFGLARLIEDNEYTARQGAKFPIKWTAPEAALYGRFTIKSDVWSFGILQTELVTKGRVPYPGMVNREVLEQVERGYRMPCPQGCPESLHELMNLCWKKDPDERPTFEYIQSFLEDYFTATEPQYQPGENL
Test: ADP-Glo kinase assay, inhibition rates of Yes phosphorylation activity (first and second screening)
Assay type: biochemical
Conditions: first screening; mean of n = 4 wells; 10 μmol L−1 compound
Protocol: All inhibitory assays of the phosphorylation activity of Yes were performed in accordance with the Promega Technical Manual for the ADP-Glo™ Kinase Assay (Fitchburg, WI, USA. Catalog number: V9102). The human recombinant Yes [a.a. […] The screening was conducted in three steps consisting of the first screening, the second screening, and the IC50 determination, as can be illustrated in Fig. 1b. First, we determined the inhibition rates of the 1,991 compounds. […]
resultType: First screening IR (inhibition rate) (%)
Numbers only, in %.

Check out these entries, answers already filled in.
• CS(=O)(=O)CCS(=O)(=O)c1ccc(N)cc1 [Compound Z808591212] = -1
• C=CCN(CC(=O)Nc1ccc(S(=O)(=O)N2CCOCC2)cc1)S(=O)(=O)c1ccccc1C(F)(F)F [Compound Z24398732] = 0
• Cc1cccc(C)c1OC1CCN(c2ncnc3c2cnn3C)CC1 [Compound Z646031500] = 8

// for each molecule below, give its First screening IR (inhibition rate)
1. COc1cccc(NC(=O)COc2ncnc3ccccc23)c1 [Compound Z18537695]
2. O=S1(=O)CC(S(=O)(=O)c2ccccc2)C(S(=O)(=O)c2ccccc2)C1 (centres unmarked) [Compound Z56757817]
3. C=CCn1c(COc2ccccc2F)nnc1SCCCn1c(=O)[nH]c2ccccc21 [Compound Z24188026]
4. CSCCC(NC(=O)c1ccco1)C(=O)NCc1ccc(CN(C)C)cc1 (centres unmarked) [Compound Z102556578]
5. COC(=O)c1cc(NC(=O)C2=C(Cl)CCCC2)cc(C(=O)OC)c1 [Compound Z223943920]
6. CCN(CCNC(=O)c1[nH]c2c(c1C)C(=O)CCC2)c1cccc(C)c1 [Compound Z188949814]
7. Cc1ccc([N+](=O)[O-])c(N2CCC(NCCO)CC2)c1 [Compound Z1576995201]

1: -1; 2: 15; 3: -6; 4: -3; 5: -1; 6: -5; 7: -9

// for each molecule below, give its First screening IR (inhibition rate)
1. CC(C)C(NC(=O)c1ccc(CNC(N)=O)cc1)c1ccccc1 (centres unmarked) [Compound Z96018682]
2. CC(=O)c1c[nH]c(C(=O)NCc2csc(-c3ccccc3)n2)c1 [Compound Z236994250]
3. COc1ccc(C(=O)N2CCCC2)cc1NC(=O)CC1CCCC1 [Compound Z913725738]

[-1, 4, 7]

// for each molecule below, give its First screening IR (inhibition rate)
1. CCN(CC)S(=O)(=O)c1ccc(N2CCc3c(sc(N)c3C#N)C2)c([N+](=O)[O-])c1 [Compound Z166707558]
2. Cc1ccc(-c2cc(C(=O)O)c3c(C)nn(-c4ccc(C)cc4C)c3n2)cc1 [Compound Z55871149]
3. Cc1cn2c3c(=O)n(CCN4CCCCC4)c(=O)n(C)c3nc2n1-c1ccc(Oc2ccccc2)cc1 [Compound Z247616328]

1: 1; 2: 40; 3: 11

So what's the measured First screening IR (inhibition rate) for this one? Cc1ccc(C)c(-n2nnnc2SC(C)C(=O)Nc2ccc(Cl)cn2)c1 (centres unmarked) [Compound Z21689617] 8
